Parameter: pIC50. Scope: all listed entries.
- Test system: BT-474
- experiment summary: Cell viability assay (CellTiter Glo), BT-474
- Assay type: cell-based
- measurement parameters: Homo sapiens; BT-474 cells, 72 hours, CellTiter Glo; read-out: IC50, cell viability, BT-474
Scale: negative log10 of molar concentration, which is what pIC50 denotes.

Please review the entries below; each comes with its answer.
{"molecule": "C=C1CCN(c2ccc3ncnc(Nc4ccc(Oc5ccn6ccnc6c5)c(C)c4)c3c2)C1=O", "endpoint value": 7.79}
{"molecule": "C=C1CCN(c2ccc3ncnc(Nc4ccc(Oc5ccn6ncnc6c5)c(C)c4)c3c2)C1=O", "endpoint value": 8.13}

Recorded pIC50 (molecule C=C1CCN(c2ccc3ncnc(Nc4ccc(Oc5ccn(C(F)F)c(=O)c5)c(C)c4)c3c2)C1=O ): 7.69

Recorded pIC50 (molecule C=C1CCN(c2ccc3ncnc(Nc4ccc(Cc5ccn6ncnc6c5)cc4)c3c2)C1=O ): 7.35

Recorded pIC50 (molecule C=C1CCN(c2ccc3ncnc(Nc4ccc(Cc5ccn6ncnc6c5)c(C)c4)c3c2)C1=O ): 8.33

* * *

- system tested: phosphorylated ERBB2 (pERBB2) (Homo sapiens, UniProt P04626)
- Construct: endogenous in cells
- Sequence (P04626 23-1255): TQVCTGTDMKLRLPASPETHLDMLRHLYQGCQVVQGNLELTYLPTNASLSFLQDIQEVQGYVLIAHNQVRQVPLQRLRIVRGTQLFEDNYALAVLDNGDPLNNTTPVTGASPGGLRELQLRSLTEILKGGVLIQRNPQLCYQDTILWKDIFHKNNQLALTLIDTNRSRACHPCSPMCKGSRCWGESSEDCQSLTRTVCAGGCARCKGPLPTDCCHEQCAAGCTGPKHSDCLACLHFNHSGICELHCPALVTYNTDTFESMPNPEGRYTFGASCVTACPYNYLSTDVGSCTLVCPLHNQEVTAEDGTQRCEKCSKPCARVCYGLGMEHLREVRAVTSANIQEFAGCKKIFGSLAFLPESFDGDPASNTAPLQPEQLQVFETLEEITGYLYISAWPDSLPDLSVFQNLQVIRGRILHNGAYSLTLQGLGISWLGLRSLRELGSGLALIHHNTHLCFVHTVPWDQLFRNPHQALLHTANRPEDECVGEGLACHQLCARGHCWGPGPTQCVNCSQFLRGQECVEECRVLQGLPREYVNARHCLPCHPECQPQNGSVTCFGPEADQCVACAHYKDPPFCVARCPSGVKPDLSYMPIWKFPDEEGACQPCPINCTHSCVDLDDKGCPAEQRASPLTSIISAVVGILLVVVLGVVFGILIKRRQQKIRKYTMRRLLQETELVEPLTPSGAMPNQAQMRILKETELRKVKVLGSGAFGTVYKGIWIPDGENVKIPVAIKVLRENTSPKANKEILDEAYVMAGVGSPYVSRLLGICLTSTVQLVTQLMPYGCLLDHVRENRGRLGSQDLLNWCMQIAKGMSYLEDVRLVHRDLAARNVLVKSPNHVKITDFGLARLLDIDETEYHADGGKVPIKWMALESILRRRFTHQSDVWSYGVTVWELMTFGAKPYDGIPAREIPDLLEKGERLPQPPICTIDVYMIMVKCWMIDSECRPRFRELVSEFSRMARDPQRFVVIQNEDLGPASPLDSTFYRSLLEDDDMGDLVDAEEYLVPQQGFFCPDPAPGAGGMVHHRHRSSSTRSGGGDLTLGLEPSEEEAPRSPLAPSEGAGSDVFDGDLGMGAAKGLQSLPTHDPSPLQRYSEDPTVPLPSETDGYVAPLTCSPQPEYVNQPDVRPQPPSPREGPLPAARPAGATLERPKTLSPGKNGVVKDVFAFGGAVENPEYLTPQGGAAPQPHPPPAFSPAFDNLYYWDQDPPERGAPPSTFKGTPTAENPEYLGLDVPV
- experiment summary: Detection of phosphorylated ERBB2 (pERBB2) by ELISA in BT-474 cells
- measurement parameters: four hours incubation
- Experimental: BT-474 cells were seeded into a 96-well at 2.0*10^4 cells/100 μl/well. Compounds were dissolved and serially diluted in DMSO. The compounds were then were added, mixed, and incubated for four hours at 37° C., 5% CO2. […] Optical density at 450 nm was read on an EnSpire plate reader (Perkin Elmer). The remaining kinase activity by calculated using the following formula: % Relative activity=100×(A450sample−A450LC)/(A450HC−A450LC). […]
reported endpoint: pIC50
Scale: negative log10 of molar concentration, which is what pIC50 denotes.

{"compound": "C=C1C(=O)N(c2ccc3ncnc(Nc4ccc(Oc5ccc6c(c5)ncn6C)c(C)c4)c3c2)C[C@H]1C [Compound 37]", "pIC50": 7.57}

Recorded pIC50 (compound Cc1cc(Nc2ncnc3ccc(N4CC/C(=C\CN(C)C)C4=O)nc23)ccc1Oc1ccc2c(c1)nnn2C [Compound 68] ): 7.52

Recorded pIC50 (compound C=C1CCCN(c2ccc3ncnc(Nc4ccc(Oc5ccn6ncnc6c5)c(C)c4)c3n2)C1=O [Compound 95] ): 7.91

* * *

- system tested: phosphorylated EGFR (pEGFR) (Homo sapiens, UniProt P00533)
- Construct: performed to measure phosphorylated EGFR levels using A431 cells (10% FBS); endogenous in cells
- Sequence (P00533 25-1210): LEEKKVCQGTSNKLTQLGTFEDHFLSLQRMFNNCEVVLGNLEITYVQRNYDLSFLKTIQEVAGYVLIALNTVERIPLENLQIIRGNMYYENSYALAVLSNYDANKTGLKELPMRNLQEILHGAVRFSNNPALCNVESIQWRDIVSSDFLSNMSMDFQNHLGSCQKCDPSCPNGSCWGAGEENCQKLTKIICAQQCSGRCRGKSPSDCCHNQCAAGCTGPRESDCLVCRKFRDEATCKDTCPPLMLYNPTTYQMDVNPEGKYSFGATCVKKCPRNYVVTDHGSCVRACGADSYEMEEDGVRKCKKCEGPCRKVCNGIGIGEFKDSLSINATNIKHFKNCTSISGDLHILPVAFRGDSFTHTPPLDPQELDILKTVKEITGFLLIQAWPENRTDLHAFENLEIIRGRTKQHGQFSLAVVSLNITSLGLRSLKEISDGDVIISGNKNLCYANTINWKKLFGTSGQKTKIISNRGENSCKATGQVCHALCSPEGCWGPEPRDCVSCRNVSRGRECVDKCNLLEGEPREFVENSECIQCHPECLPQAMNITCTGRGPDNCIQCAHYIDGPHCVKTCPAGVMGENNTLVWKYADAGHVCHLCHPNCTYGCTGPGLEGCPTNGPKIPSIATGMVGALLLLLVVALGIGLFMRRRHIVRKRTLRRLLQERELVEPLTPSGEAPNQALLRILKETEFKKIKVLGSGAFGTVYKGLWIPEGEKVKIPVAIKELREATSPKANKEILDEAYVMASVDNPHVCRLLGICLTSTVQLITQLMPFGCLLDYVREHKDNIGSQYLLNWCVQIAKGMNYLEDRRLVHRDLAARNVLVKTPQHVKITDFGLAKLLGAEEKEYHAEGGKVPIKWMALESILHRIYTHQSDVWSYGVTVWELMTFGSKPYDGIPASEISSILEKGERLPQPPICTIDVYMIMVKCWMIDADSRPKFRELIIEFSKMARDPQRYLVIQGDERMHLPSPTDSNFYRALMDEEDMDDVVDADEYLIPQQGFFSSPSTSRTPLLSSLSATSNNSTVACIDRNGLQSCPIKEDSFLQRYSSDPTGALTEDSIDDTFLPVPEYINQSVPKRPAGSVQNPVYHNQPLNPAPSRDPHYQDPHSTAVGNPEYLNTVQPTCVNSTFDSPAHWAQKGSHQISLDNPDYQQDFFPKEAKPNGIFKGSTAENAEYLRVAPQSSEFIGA
- experiment summary: Detection of phosphorylated EGFR (pEGFR) in EGF-stimulated A431 cells
- measurement parameters: A431 cells (10% FBS), 4 hours incubation, EGF 30 ng/mL 10 minutes, AlphaLISA
Parameter: IC50. Scope: all listed entries.
Write the number in nM without appending the unit.

{"structure notation": "C=C1CCCN(c2ccc3ncnc(Nc4ccc(Oc5ccc6c(c5)ncn6C)c(C)c4)c3n2)C1=O", "reported endpoint": "IC50", "endpoint value": 794}
{"structure notation": "Cc1ccc(Oc2ccc(Nc3ncnc4cnc(N5CC/C(=C\\CN(C)C)C5=O)cc34)cc2C)cn1", "reported endpoint": "IC50", "endpoint value": 697}
{"structure notation": "C=C1C(=O)N(c2ccc3ncnc(Nc4ccc(Oc5ccc6c(c5)ncn6C)c(C)c4)c3n2)C[C@H]1C", "reported endpoint": "IC50", "endpoint value": 710}

Recorded IC50 (compound C=C1CCN(c2ccc3ncnc(Nc4ccc(Oc5ccc6nccnc6c5)c(C)c4)c3c2)C1=O ): 759

* * *

- system tested: phosphorylated EGFR (pEGFR) (Homo sapiens, UniProt P00533)
- Construct: performed to measure phosphorylated EGFR levels using A431 cells (10% FBS); endogenous in cells
- experiment summary: Detection of phosphorylated EGFR (pEGFR) in EGF-stimulated A431 cells
- measurement parameters: A431 cells (10% FBS), 4 hours incubation, EGF 30 ng/mL 10 minutes, AlphaLISA
reported endpoint: IC50

Please review the entries below; each comes with its answer.
{"structure notation": "C=C1CCN(c2cc3c(Nc4ccc(Oc5ccn6ncnc6c5)c(Cl)c4)ncnc3cc2OCCN(C)C)C1=O", "system tested": "phosphorylated EGFR (pEGFR) (Homo sapiens, UniProt P00533)", "reported endpoint": "IC50", "endpoint value": "> 10 µM"}
{"structure notation": "Cc1c(Oc2ccc3c(c2)ncn3C)ccc(Nc2ncnc3ccc(N4CC/C(=C\\CN(C)C)C4=O)nc23)c1F", "system tested": "phosphorylated EGFR (pEGFR) (Homo sapiens, UniProt P00533)", "reported endpoint": "IC50", "endpoint value": "> 10 µM"}

As a next step, examine the compound that follows.
Recorded IC50 (compound CN(C)C/C=C1\CCN(c2ccc3ncnc(Nc4cc(F)c(Oc5ccn6ncnc6c5)cc4F)c3n2)C1=O ): > 10 µM

* * *

- system tested: Ba/F3 ERBB2 A775_G776insYVMA (Homo sapiens, UniProt P04626, DUP772-775, cells depend on it)
- Sequence (P04626 with tags, fused parts or gaps DUP772-775): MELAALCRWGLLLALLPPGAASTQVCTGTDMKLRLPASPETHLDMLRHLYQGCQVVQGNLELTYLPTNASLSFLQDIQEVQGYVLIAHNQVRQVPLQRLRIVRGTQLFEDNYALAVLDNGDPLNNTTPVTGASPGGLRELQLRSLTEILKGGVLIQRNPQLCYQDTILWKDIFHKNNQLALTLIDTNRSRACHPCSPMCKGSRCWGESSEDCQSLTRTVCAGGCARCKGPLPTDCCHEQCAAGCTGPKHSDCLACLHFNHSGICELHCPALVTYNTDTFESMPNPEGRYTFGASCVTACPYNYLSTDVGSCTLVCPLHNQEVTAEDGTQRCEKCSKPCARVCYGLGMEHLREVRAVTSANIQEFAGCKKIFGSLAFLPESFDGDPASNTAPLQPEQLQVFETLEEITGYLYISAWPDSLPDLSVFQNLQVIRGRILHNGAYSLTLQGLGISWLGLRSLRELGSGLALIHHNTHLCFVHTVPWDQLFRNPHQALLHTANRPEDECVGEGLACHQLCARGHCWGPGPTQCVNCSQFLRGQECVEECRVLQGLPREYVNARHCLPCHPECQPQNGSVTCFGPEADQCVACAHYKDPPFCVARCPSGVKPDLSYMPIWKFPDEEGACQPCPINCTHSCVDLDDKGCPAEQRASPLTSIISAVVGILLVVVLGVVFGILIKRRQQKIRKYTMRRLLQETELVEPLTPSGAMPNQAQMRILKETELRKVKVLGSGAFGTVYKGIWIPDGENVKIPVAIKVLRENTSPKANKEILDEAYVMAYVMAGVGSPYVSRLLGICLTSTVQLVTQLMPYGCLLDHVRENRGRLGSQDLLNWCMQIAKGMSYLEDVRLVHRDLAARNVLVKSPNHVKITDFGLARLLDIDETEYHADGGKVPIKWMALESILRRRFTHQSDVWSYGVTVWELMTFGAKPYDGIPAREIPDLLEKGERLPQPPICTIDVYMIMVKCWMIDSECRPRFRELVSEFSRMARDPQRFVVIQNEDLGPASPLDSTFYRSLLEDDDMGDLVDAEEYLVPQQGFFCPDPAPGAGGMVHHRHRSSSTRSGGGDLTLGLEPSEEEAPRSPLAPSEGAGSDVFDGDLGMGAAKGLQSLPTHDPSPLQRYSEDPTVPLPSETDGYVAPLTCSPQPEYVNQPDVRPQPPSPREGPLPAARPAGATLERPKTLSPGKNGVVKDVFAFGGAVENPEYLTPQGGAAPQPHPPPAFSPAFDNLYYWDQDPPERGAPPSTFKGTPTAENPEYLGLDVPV
- experiment summary: Cell viability assay, Ba/F3 ERBB2 A775_G776insYVMA
- Type: cell-based, mouse
- measurement parameters: Ba/F3 ERBB2 YVMA cells, cell viability, 72 hours, CellTiter Glo; Table B5; read-out: Ba/F3 ERBB2 YVMA, IC50
reported endpoint: log10(GI50) (log10 of the value in nM)
log10 GI50, nM

Recorded log10(GI50) (molecule Cc1cc(Nc2ncnc3ccc(N4C(=O)C(=CCN(C)C)C5CC54)nc23)ccc1Oc1ccn2ncnc2c1 (single isomer, unassigned) [Example S108, Enantiomer #2] ): 0.69

Recorded log10(GI50) (molecule Cc1cc(Nc2ncnc3ccc(N4CC/C(=C\C5CN(C)C5)C4=O)nc23)ccc1Oc1ccn2ncnc2c1 ): 1.20

Recorded log10(GI50) (molecule Cc1cc(Nc2ncnc3cnc(N4CC/C(=C\CN(C)C)C4=O)cc23)ccc1Oc1ccn2ncnc2c1 ): 0.71

Recorded log10(GI50) (molecule [2H]C([2H])([2H])N(C/C=C1\CCN(c2ccc3ncnc(Nc4ccc(Oc5ccc6c(c5)ncn6C)c(C)c4)c3n2)C1=O)C([2H])([2H])[2H] ): 0.34

Recorded log10(GI50) (molecule CN(C)C/C=C1\CCN(c2ccc3ncnc(Nc4ccc(Oc5ccc6c(c5)ncn6C)c(Cl)c4)c3n2)C1=O ): 0.26

Recorded log10(GI50) (molecule C=C1CCN(c2ccc3ncnc(Nc4ccc(Oc5ccc6c(c5)ncn6C)c(C)c4)c3c2)C1=O ): 1.05

Recorded log10(GI50) (molecule C=C1CCN(c2ccc3ncnc(Nc4ccc(Oc5ccc6nccnc6c5)c(C)c4)c3c2)C1=O ): 1.73

Recorded log10(GI50) (molecule Cc1cc(Nc2ncnc3ccc(N4C(=O)/C(=C\CN(C)C)C5CC54)nc23)ccc1Oc1ccn2ncnc2c1 (stereo not drawn) ): 0.76

* * *

- system tested: phosphorylated EGFR (pEGFR) (Homo sapiens)
- Construct: performed to measure phosphorylated EGFR levels using A431 cells (10% FBS); endogenous in cells
- experiment summary: Detection of phosphorylated EGFR (pEGFR) in EGF-stimulated A431 cells
- measurement parameters: A431 cells (10% FBS), 4 hours incubation, EGF 30 ng/mL 10 minutes, AlphaLISA
Parameter: IC50. Scope: all listed entries.

Please review the entries below; each comes with its answer.
{"molecule": "Cc1cc(Nc2ncnc3ccc(N4CC/C(=C\\C5CN(C)C5)C4=O)nc23)ccc1Oc1ccn2ncnc2c1 [Compound 139]", "reported endpoint": "IC50", "endpoint value": "> 10 µM"}
{"molecule": "C=C1C(=O)N(c2ccc3ncnc(Nc4ccc(Oc5ccn6ncnc6c5)c(C)c4)c3c2)CC12CC2 [Compound 2]", "reported endpoint": "IC50", "endpoint value": "> 10 µM"}
{"molecule": "Cc1cc(Nc2ncnc3ccc(N4CC/C(=C\\[C@@H](C)N(C)C)C4=O)nc23)ccc1Oc1ccn2ncnc2c1 [Compound 114]", "reported endpoint": "IC50", "endpoint value": "> 10 µM"}

As a next step, examine the molecule that follows.
Recorded IC50 (molecule Cc1cc(Nc2ncnc3ccc(N4CCC(=CCN(C)C)C4=O)cc23)ccc1Oc1ccn2ncnc2c1 (single isomer, unassigned) [Compound 17] ): > 10 µM

* * *

- system tested: phosphorylated ERBB2 (pERBB2) (Homo sapiens)
- Construct: endogenous in cells
- experiment summary: Detection of phosphorylated ERBB2 (pERBB2) by ELISA in BT-474 cells
- measurement parameters: four hours incubation
reported endpoint: pIC50
Scale: negative log10 of molar concentration, which is what pIC50 denotes.

{"compound": "Cc1cc(Nc2ncnc3ccc(N4CC(C)C(=CCN(C)C)C4=O)nc23)ccc1Oc1ccc2c(c1)nnn2C (single isomer, unassigned) [Example S126, Enantiomer #1]", "reported endpoint": "pIC50", "endpoint value": 7.39}
{"compound": "Cc1cc(Nc2ncnc3cnc(N4CC(C)C(=CCN(C)C)C4=O)cc23)ccc1Oc1ccc2c(c1)ncn2C (single isomer, unassigned) [Example S97, Enantiomer #1]", "reported endpoint": "pIC50", "endpoint value": 7.38}

As a next step, examine the compound that follows.
Recorded pIC50 (compound CCc1ccc(Oc2ccc(Nc3ncnc4cnc(N5CC/C(=C\CN(C)C)C5=O)cc34)cc2C)cn1 [Compound 73] ): 7.38

Sourced from patent US20240116921A1
